For each record, write down the corresponding viability, T/C.
test system: 843782-103-R-J1-PDC complex spheroid viability; test: Anticancer human tumor 843782-103-R-J1-PDC patient-derived lung adenocarcinoma cell line growth inhibition [RAS]; conditions: second compound 0.316 µM; first compound 1 µM; hits give low values
Give bare numbers, in %.

# count of solved cases: 8
[
  {
    "MOLECULE": "CC(=O)OC12COC1CC(O)C1(C)C(=O)C(O)C3=C(C)C(OC(=O)C(O)C(NC(=O)OC(C)(C)C)c4ccccc4)CC(O)(C(OC(=O)c4ccccc4)C21)C3(C)C (centres undefined) + C=CC(=O)N1CCN(c2nc(OCC3CCCN3C)nc3c(F)c(-c4nc(N)cc(C)c4C(F)(F)F)c(Cl)cc23)C(C)C1",
    "UNITS": "%",
    "viability, T/C": 5.43
  },
  {
    "MOLECULE": "CC1(O)CCCC1n1c(=O)c(C(F)F)cc2cnc(NC3CCN(S(C)(=O)=O)CC3)nc21 (centres undefined) + C#Cc1c(F)ccc2cc(O)cc(-c3ncc4c(N5CC6CCC(C5)N6)nc(OCC56CCCN5CC(F)C6)nc4c3F)c12",
    "UNITS": "%",
    "viability, T/C": 37.3
  },
  {
    "MOLECULE": "NC1c2ccccc2OC12CCN(c1cnc3c(N4CCCc5ncccc54)n[nH]c3n1)CC2 (centres undefined) + C=CC(=O)N1CCN(c2nc(OCC3CCCN3C)nc3c(F)c(-c4nc(N)cc(C)c4C(F)(F)F)c(Cl)cc23)C(C)C1",
    "UNITS": "%",
    "viability, T/C": 23.1
  },
  {
    "MOLECULE": "C=CC(=O)N1CCN(c2nc(OCC3CCCN3C)nc3c(F)c(-c4nc(N)cc(C)c4C(F)(F)F)c(Cl)cc23)C(C)C1 (centres undefined) + C#Cc1c(F)ccc2cc(O)cc(-c3ncc4c(N5CC6CCC(C5)N6)nc(OCC56CCCN5CC(F)C6)nc4c3F)c12",
    "UNITS": "%",
    "viability, T/C": 76.1
  },
  {
    "MOLECULE": "Nc1ccn(C2OC(CO)C(O)C2(F)F)c(=O)n1 (centres undefined) + C#Cc1c(F)ccc2cc(O)cc(-c3ncc4c(N5CC6CCC(C5)N6)nc(OCC56CCCN5CC(F)C6)nc4c3F)c12",
    "UNITS": "%",
    "viability, T/C": 2.74
  },
  {
    "MOLECULE": "CC(Nc1ccc2c(c1)OCCn1cc(N3C(=O)OCC3C(F)F)nc1-2)C(N)=O (centres undefined) + C=CC(=O)N1CCN(c2nc(OCC3CCCN3C)nc3c(F)c(-c4nc(N)cc(C)c4C(F)(F)F)c(Cl)cc23)C(C)C1",
    "UNITS": "%",
    "viability, T/C": 24.3
  },
  {
    "MOLECULE": "CC(Nc1ccc2c(c1)OCCn1cc(N3C(=O)OCC3C(F)F)nc1-2)C(N)=O (centres undefined) + C#Cc1c(F)ccc2cc(O)cc(-c3ncc4c(N5CC6CCC(C5)N6)nc(OCC56CCCN5CC(F)C6)nc4c3F)c12",
    "UNITS": "%",
    "viability, T/C": 32.6
  },
  {
    "MOLECULE": "CC1(O)CCCC1n1c(=O)c(C(F)F)cc2cnc(NC3CCN(S(C)(=O)=O)CC3)nc21 (centres undefined) + C=CC(=O)N1CCN(c2nc(OCC3CCCN3C)nc3c(F)c(-c4nc(N)cc(C)c4C(F)(F)F)c(Cl)cc23)C(C)C1",
    "UNITS": "%",
    "viability, T/C": 28.5
  }
]

# return viability, T/C for each item in the list
1. CCC(CC)c1cc(NC2CCC(N)C2)n2nccc2n1 (centres undefined) + C=CC(=O)N1CCN(c2nc(OCC3CCCN3C)nc3c(F)c(-c4nc(N)cc(C)c4C(F)(F)F)c(Cl)cc23)C(C)C1
2. CC(=O)OC12COC1CC(O)C1(C)C(=O)C(O)C3=C(C)C(OC(=O)C(O)C(NC(=O)OC(C)(C)C)c4ccccc4)CC(O)(C(OC(=O)c4ccccc4)C21)C3(C)C (centres undefined) + C#Cc1c(F)ccc2cc(O)cc(-c3ncc4c(N5CC6CCC(C5)N6)nc(OCC56CCCN5CC(F)C6)nc4c3F)c12
3. CCC(CC)c1cc(NC2CCC(N)C2)n2nccc2n1 (centres undefined) + C#Cc1c(F)ccc2cc(O)cc(-c3ncc4c(N5CC6CCC(C5)N6)nc(OCC56CCCN5CC(F)C6)nc4c3F)c12
4. Nc1ccn(C2OC(CO)C(O)C2(F)F)c(=O)n1 (centres undefined) + C=CC(=O)N1CCN(c2nc(OCC3CCCN3C)nc3c(F)c(-c4nc(N)cc(C)c4C(F)(F)F)c(Cl)cc23)C(C)C1

1. 71
2. 5.27
3. 102
4. 1.83

# return viability, T/C for each item in the list
1. C=CC(=O)Nc1cc(Nc2nccc(-c3cn(C)c4ccccc34)n2)c(OC)cc1N(C)CCN(C)C + C#Cc1c(F)ccc2cc(O)cc(-c3ncc4c(N5CC6CCC(C5)N6)nc(OCC56CCCN5CC(F)C6)nc4c3F)c12
2. Cc1nc(N2CCC3(CC2)COC(C)C3N)c(CO)nc1Sc1ccnc(N)c1Cl (centres undefined) + C=CC(=O)N1CCN(c2nc(OCC3CCCN3C)nc3c(F)c(-c4nc(N)cc(C)c4C(F)(F)F)c(Cl)cc23)C(C)C1
3. CC(C)NCC(C(=O)N1CCN(c2ncnc3c2C(C)CC3O)CC1)c1ccc(Cl)cc1 (centres undefined) + C#Cc1c(F)ccc2cc(O)cc(-c3ncc4c(N5CC6CCC(C5)N6)nc(OCC56CCCN5CC(F)C6)nc4c3F)c12
4. C[C@@H](NC(=O)c1ncnc(N)c1Cl)c1ncc(C(=O)Nc2cc(C(F)(F)F)c(Cl)cn2)s1 + C=CC(=O)N1CCN(c2nc(OCC3CCCN3C)nc3c(F)c(-c4nc(N)cc(C)c4C(F)(F)F)c(Cl)cc23)C(C)C1
5. Cc1nc(N2CCC3(CC2)COC(C)C3N)c(CO)nc1Sc1ccnc(N)c1Cl (centres undefined) + C#Cc1c(F)ccc2cc(O)cc(-c3ncc4c(N5CC6CCC(C5)N6)nc(OCC56CCCN5CC(F)C6)nc4c3F)c12
6. C[C@@H](NC(=O)c1ncnc(N)c1Cl)c1ncc(C(=O)Nc2cc(C(F)(F)F)c(Cl)cn2)s1 + C#Cc1c(F)ccc2cc(O)cc(-c3ncc4c(N5CC6CCC(C5)N6)nc(OCC56CCCN5CC(F)C6)nc4c3F)c12

54.4
34.2
69.2
86.6
65.9
102

Recorded viability, T/C for CCN1CCN(Cc2ccc(Nc3ncc(F)c(-c4cc(F)c5nc(C)n(C(C)C)c5c4)n3)nc2)CC1 + C=CC(=O)N1CCN(c2nc(OCC3CCCN3C)nc3c(F)c(-c4nc(N)cc(C)c4C(F)(F)F)c(Cl)cc23)C(C)C1 on 843782-103-R-J1-PDC complex spheroid viability was 57.7

###

For each record, write down the corresponding viability, T/C.
system: 843782-103-R-J1-PDC complex spheroid viability; assay: Anticancer human tumor 843782-103-R-J1-PDC cell line growth inhibition [RAS]; conditions: second compound 0.01 µM; first compound 0.1 µM; hits give low values;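 also: viability read after seven days of compound exposure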
Give bare numbers, in %.

# count of solved cases: 2
[
  {
    "MOLECULE": "Cc1nc(N2CCC3(CC2)COC(C)C3N)c(CO)nc1Sc1ccnc(N)c1Cl (stereo not drawn) + C=CC(=O)N1CCN(c2nc(OCC3CCCN3C)nc3c(F)c(-c4nc(N)cc(C)c4C(F)(F)F)c(Cl)cc23)C(C)C1",
    "UNITS": "%",
    "viability, T/C": 66.8
  },
  {
    "MOLECULE": "CCC(CC)c1cc(NC2CCC(N)C2)n2nccc2n1 (stereo not drawn) + C=CC(=O)N1CCN(c2nc(OCC3CCCN3C)nc3c(F)c(-c4nc(N)cc(C)c4C(F)(F)F)c(Cl)cc23)C(C)C1",
    "UNITS": "%",
    "viability, T/C": 88.3
  }
]

Recorded result, C[C@@H](NC(=O)c1ncnc(N)c1Cl)c1ncc(C(=O)Nc2cc(C(F)(F)F)c(Cl)cn2)s1 + C=CC(=O)N1CCN(c2nc(OCC3CCCN3C)nc3c(F)c(-c4nc(N)cc(C)c4C(F)(F)F)c(Cl)cc23)C(C)C1 , viability, T/C: 84.2

###

tested on: 843782-103-R-J1-PDC complex spheroid viability; assay: Anticancer human tumor 843782-103-R-J1-PDC cell line growth inhibition [RAS]; conditions: second compound 0.0316 µM; first compound 0.00316 µM; hits give low values;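 also: viability read after seven days of compound exposure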
For each record, write down the corresponding viability, T/C.
Numbers only, in %.

# return viability, T/C for each item in the list
1. Nc1ccn(C2OC(CO)C(O)C2(F)F)c(=O)n1 (stereo not given) + C=CC(=O)N1CCN(c2nc(OCC3CCCN3C)nc3c(F)c(-c4nc(N)cc(C)c4C(F)(F)F)c(Cl)cc23)C(C)C1
2. CCN1CCN(Cc2ccc(Nc3ncc(F)c(-c4cc(F)c5nc(C)n(C(C)C)c5c4)n3)nc2)CC1 + C=CC(=O)N1CCN(c2nc(OCC3CCCN3C)nc3c(F)c(-c4nc(N)cc(C)c4C(F)(F)F)c(Cl)cc23)C(C)C1
3. C=CC(=O)Nc1cc(Nc2nccc(-c3cn(C)c4ccccc34)n2)c(OC)cc1N(C)CCN(C)C + C#Cc1c(F)ccc2cc(O)cc(-c3ncc4c(N5CC6CCC(C5)N6)nc(OCC56CCCN5CC(F)C6)nc4c3F)c12
4. CC(C)n1nc(-c2ccc3oc(N)nc3c2)c2c(N)ncnc21 + C#Cc1c(F)ccc2cc(O)cc(-c3ncc4c(N5CC6CCC(C5)N6)nc(OCC56CCCN5CC(F)C6)nc4c3F)c12
5. C=CC(=O)N1CCN(c2nc(OCC3CCCN3C)nc3c(F)c(-c4nc(N)cc(C)c4C(F)(F)F)c(Cl)cc23)C(C)C1 (stereo not given) + C#Cc1c(F)ccc2cc(O)cc(-c3ncc4c(N5CC6CCC(C5)N6)nc(OCC56CCCN5CC(F)C6)nc4c3F)c12

1: 88.7; 2: 83.1; 3: 108; 4: 97.5; 5: 89.9
